Tested on: MS2 coat protein
test summary: apparent KD of MS2 coat protein; designed switch direction (-1 OFF switch, 1 ON switch): -1; higher = weaker reporter binding
condition notes: input ligand: microRNA oligo, concentration not stated
Threshold rule: apparent KD of MS2 coat protein greater than or equal to 30 nM is Condition met; below that, Condition not met.

query sequence: GGCUGCAAUGUAGGAUAUCUGCACGUGUAGUGCAGAGAAGGACAUGAGGAUCACCCAUGUAUAGUAGCUUCGGCUACAGCAGCC [ENG1-D3] (Eterna round: R96, puzzle: Exclusion NG 1)
qualitative label: Condition not met
//
query sequence: AGAGAAUAGUCAGGAUAUGUGAAUAGAUAGAGAACAGAAGGGACACAUGAGGAUCACCCAUGUGAAGUCUUGAGGCUGCGUGGA [Prohibition 21 - Jieux - Exclusion NG 1] (Eterna round: R96, puzzle: Exclusion NG 1)
qualitative label: Condition not met
//
query sequence: AUCAGCUCGUCAGGAUAUACAUGAGGAUCACCCAUGUGAUCAAUAGCAGCUUCGGCUGCAUUAAUGUAGAAGGGACGAGCUGAU [ENG2/5-B3] (Eterna round: R96, puzzle: Exclusion NG 2)
qualitative label: Condition met
//
query sequence: AUACCAUGCCGCCUAAUAGCUUUUUGCUCGUCUUAUAAAACAUGAGGAUCACCCAUGUAAAACAUGUGGCGUGACCC [Maridi] (Eterna round: R96, puzzle: Sensor v3, turn-off variant 2)
qualitative label: Condition met
//
query sequence: GCGCCAUCGUGAGAUGGCGUAUAAACAUGAGGAUCACCCAUGUAGGAUAUCGAUUGCUUUGCAGUCGAGAAGGGCAUUAUAAGU [JL ENG3 3.75] (Eterna round: R96, puzzle: Exclusion NG 3)
qualitative label: Condition not met
//
query sequence: UUGUUGUAUGUAGGAUAUGCAUAUUAUUGUUAUGCAGAAGGACAUGAGGAUCACCCAUGUAUAUUAUUAUUAUAUGUUAUAUAU [Title] (Eterna round: R96, puzzle: Exclusion NG 1)
qualitative label: Condition not met
//
query sequence: UUUUUAGAUGAAGGAUAUACUUAACAUGAGGAUCACCCAUGUGGUGUUGUGAGUGAGUGAGUUUAGUAGAAGGUCAAUGAUUUU [JMF's solution 66] (Eterna round: R96, puzzle: Exclusion NG 2)
qualitative label: Condition met
//
query sequence: GUCCUCAUGACAUGAGGAUCACCCAUGUAUUAUUUGGUAACUGAGGAUAUACUUUUAAUGUUUAUGUAGAAGGCAGAUACGGUU [JR_ExcNG3_Sub018] (Eterna round: R96, puzzle: Exclusion NG 3)
qualitative label: Condition met
//
query sequence: UUGUUAUAUGUAGGAUAUGCAUAUUAUUAUUGUGCAGAAGGACAUGAGGAUCACCCAUGUAUAUUAUUAUUAUAUAUUAUAUAU [Title] (Eterna round: R96, puzzle: Exclusion NG 1)
qualitative label: Condition not met

* * *

Catalogue of sequences with associated apparent KD of MS2 coat protein
Test system: MS2 coat protein
test summary: apparent KD of MS2 coat protein; designed switch direction (-1 OFF switch, 1 ON switch): 1; higher = weaker reporter binding
condition notes: input ligand: microRNA oligo, concentration not stated
measurement kind: apparent KD of MS2 coat protein (nM)

query sequence: AAAAAACAUGAGGAUCACCCAUGUGAAAAUAUGGGAGGAUAUACAAACACGAAAGUGAAAGUAGAAGGCCUAAAAA [SS! MT 16] (Eterna round: R96, puzzle: Same State 1)
measurement kind: apparent KD of MS2 coat protein
reported result: 95.4

query sequence: ACAUGAGGAUCACCCAUGUCGCUGGUAUCGGAUACGUAUUACGAGGAUAUGCCGAGGAGUUCCGAGUAGAAGGUGUAAUACAUG [Eternabot solution 40] (Eterna round: R96, puzzle: Same State NG 3)
measurement kind: apparent KD of MS2 coat protein
reported result: 90.3

query sequence: GGUGGGUUACUACCCACACAUGAGGAUCACCCAUGUAUUGGGAAGGAUAUGGUGCCUGUGUGGUACCAGAAGGUCGUGAAGGUG [SS-NG3-LRO19] (Eterna round: R96, puzzle: Same State NG 3)
measurement kind: apparent KD of MS2 coat protein
reported result: 312

query sequence: ACAUGAGACCAAGGAUAUUUUGUACCUACAUGUGACAUGAGGAUCACCCAUGUGGUAAGUAUGAGAGAGAAGGUGGAGAUAUGU [Equivalence 23 - Jieux - Same State NG 2] (Eterna round: R96, puzzle: Same State NG 2)
measurement kind: apparent KD of MS2 coat protein
reported result: 21.5

query sequence: GCCGUAAUAACAUGAGGAUCACCCAUGUGCGCGAGAGUGGAUGAGGAUAUCGAUGGGUUUCCCGUCGAGAAGGCGUGGGUCGGC [JL SSNG3 3.98] (Eterna round: R96, puzzle: Same State NG 3)
measurement kind: apparent KD of MS2 coat protein
reported result: 24.5

query sequence: UUAAUGAAGUAAGGAUAUACAUGAGGAUUUCUCGUAGAAGGUACUAUACAUGAGGAUCACCCAUGUGCCGGUCCGUAGACUGGA [JL SSNG1 1.05] (Eterna round: R96, puzzle: Same State NG 1)
measurement kind: apparent KD of MS2 coat protein
reported result: 297

query sequence: GAGCCAGUCCGAGGAUAUUCGUAUUAACACAUGAGGAUCACCCAUGUGGGCUCAGAAGAGCCCUGGGAGAAGGCGGGCUGGCUC [SS-NG2-LRO17] (Eterna round: R96, puzzle: Same State NG 2)
measurement kind: apparent KD of MS2 coat protein
reported result: 30.9

query sequence: GGAAUAUGAUGUUACAUGAGGAUCACCCAUGUAGUAAUAACUAAGGAUAUUUGAAAGGGAGGAGAAGAGAAGGUAGGAUCAUAA [AK SSNG3-V2-11] (Eterna round: R96, puzzle: Same State NG 3)
measurement kind: apparent KD of MS2 coat protein
reported result: 41.3

query sequence: ACAUGAGACCGAGGAUAUUUUGUACCUACAUGUGACAUGAGGAUCACCCAUGUGGUAAGUAUGAGAAAGAAGGCGGAGAUAUGU [Equivalence 20 - Jieux - Same State NG 2] (Eterna round: R96, puzzle: Same State NG 2)
measurement kind: apparent KD of MS2 coat protein
reported result: 24.8

query sequence: GGUCGGACAUGAGGAUCACCCAUGUGGUGAGCGGAAACGCCAUAGGAUAUCUGUCCGAAAAGGUCAGAGAAGGGUGAACCGACC [Fiskers NG3ss - 68] (Eterna round: R96, puzzle: Same State NG 3)
measurement kind: apparent KD of MS2 coat protein
reported result: 311

query sequence: GCGAGUGCCACAGGAUAUUCGGCUGUUUCGCUCGAAGAAGGGUGCCGCAUGCAAUAAAGAAAACAUGAGGAUCACCCAUGUGAA [Uszavege] (Eterna round: R96, puzzle: Same State NG 1)
measurement kind: apparent KD of MS2 coat protein
reported result: 217

query sequence: GUUACAUGAGGAUCACCCAUGUGUGUGUGGGAGUGAGUGGCUUAGGAUAUCUAUGAUUUUAGUUAAGAGAAGGGAGAUUGUUGU [SS-NG3-LRO05] (Eterna round: R96, puzzle: Same State NG 3)
measurement kind: apparent KD of MS2 coat protein
reported result: 276

query sequence: ACAAGACAGGGAGGAUAUAGCUGUUCAUCAAAGUUAGAAGGCUCGUACACAUGAGGAUCACCCAUGUUGUCGGCAGUCGACUGA [Eternabot solution 42] (Eterna round: R96, puzzle: Same State NG 1)
measurement kind: apparent KD of MS2 coat protein
reported result: 9.67

query sequence: AGAGGAGGAGCAGGAUAUUCGAAGAAGGACGUGGAAGAAGGGUUCAUGCGAUGACAUGAGGAUCACCCAUGUACCGCGCGAUGA [AK SSNG1-V2-13] (Eterna round: R96, puzzle: Same State NG 1)
measurement kind: apparent KD of MS2 coat protein
reported result: 115

query sequence: CGGGAGAUCGUAGGAUAUCUAGGAUAUGAACGAGGAUCACCCGAGCAGCAUCAGCGCAUCAGAGGAGAGAAGGACGAUCAUGCG [pwkr ssNG2 2F5 2FMN.6] (Eterna round: R96, puzzle: Same State NG 2)
measurement kind: apparent KD of MS2 coat protein
reported result: 31.7

query sequence: GCUCGAUGAUAGGCCUACAUGAGGAUCACCCAUGUAAGUGGGCAGGAUAUCUACAUGCAGAAUGUAGAGAAGGGCCCGUCGAGC [SameState NG3 #55] (Eterna round: R96, puzzle: Same State NG 3)
measurement kind: apparent KD of MS2 coat protein
reported result: 66

query sequence: UUCCCAUCGGGAGGAUAUGGUGCCUUAUUGGUGCUAGAAGGUCCAACAUGAGGAUCACCCAUGUGGGAGUGGUCUAAUGACCUC [SS NG10LRO06] (Eterna round: R96, puzzle: Same State NG 1)
measurement kind: apparent KD of MS2 coat protein
reported result: 204

query sequence: AAACACAUGAGGAUCACCCAUGUAGCGCCAUUAAAGCGCACAUAGGAUAUCCGGUCCUAAAGACCGGAGAAGGGUGAAAGAAAA [Zara] (Eterna round: R96, puzzle: Same State NG 3)
measurement kind: apparent KD of MS2 coat protein
reported result: 76.2
